B1: Intersectin-1, residues 909 to 971; numbered along this chain, Q15811 (parent)
chain: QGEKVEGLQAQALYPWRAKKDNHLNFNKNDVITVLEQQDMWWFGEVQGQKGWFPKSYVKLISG

Variants of: B1
Test: abundance fitness (aPCA) (normalised: wild type 0, dead -1); higher = more abundant; growth selection in yeast, the domain comes from the species named
Conditions: Homo sapiens
Tag: condition met if measured abundance fitness is not below -0.06, condition not met if it is.

| mutation | class-name |
| --- | --- |
| L35R | condition not met |
| E3M | condition not met |
| L35K | condition met |
| V58A | condition not met |
| L60M | condition met |
| K19C | condition met |
| R17M | condition not met |
| Y57F | condition met |
| N25F | condition not met |
| Q47L | condition not met |
| G63C | condition met |
| W42R | condition not met |
| L24M | condition not met |
| S56V | condition not met |
